Ref: PubChem BioAssay (NCI)

- Test system: SK-MEL-2 melanoma
- assay-explanation: NCI-60 one-dose screen, 48 h (100 = growth as untreated, 0 = no growth, -100 = all killed)
- conditions: 10 µM unless noted
Compounds without any hit were thinned out: in the full panel of roughly 83,000, 20% have a hit. Active and inactive are the calls of the source. Rule for the calls: active = growth percent below 10; inactive = the rest.

{"compound": "COc1cc2nc(-c3ccc(C(F)(F)F)cc3)cc(OCCCNCC3CCCO3)c2cc1OC (centres undefined)", "growth": "91.7% (inactive)"}
{"compound": "NC(=O)c1c(NC(=O)c2ccc(C3CCCCC3)cc2)sc2c1CCC(=O)C2", "growth": "25.7% (inactive)"}
{"compound": "O=C(Nc1nc2ccc(O)cc2s1)c1cccc(C(F)(F)F)c1", "growth": "57.2% (inactive)"}
{"compound": "O=C1Nc2ccccc2Oc2ccc(S(=O)(=O)CC3CO3)cc21 (centres undefined)", "growth": "85.5% (inactive)"}
